Origin of the recorded values: paper PMC8945686

Test system: mice
Assay: In vivo acute (14-day) oral toxicity study
Settings: 14 days after single dose, compounds 250 mg/kg oral, doxorubicin 15 mg/kg I.P
Readings of S.Creatinine for the listed compounds

Solved entries:
[
  {
    "Compound": "CCOC(=O)/C(C#N)=C1\\C(=O)Nc2ccc(S(=O)(=O)N3CCCCC3)cc21",
    "S.Creatinine": "0.59 ± 0.04 ^^ mg/dL"
  },
  {
    "Compound": "CC(=O)Nc1cccc(C(=O)C=C2C(=O)Nc3ccc(S(=O)(=O)N4CCCCC4)cc32)c1",
    "S.Creatinine": "0.79 ± 0.04 ^^ mg/dL"
  },
  {
    "Compound": "CC(=O)Nc1ccc(C(=O)C=C2C(=O)Nc3ccc(S(=O)(=O)N4CCCCC4)cc32)cc1",
    "S.Creatinine": "0.88 ± 0.06 ^^ mg/dL"
  }
]

Now for a further compound.
Query: S.Creatinine; subject: Cc1ccc(C(=O)CC2(O)C(=O)Nc3ccc(S(=O)(=O)N4CCCCC4)cc32)cc1 (stereo not shown)
0.82 ± 0.03 ^^ mg/dL
